# Test system: DENV-1 strain TC974#666
# test.method.notes: Tetravalent RT-qPCR assay, serotype 1
# Assay type: cell-based
# stated.conditions: Dengue virus, DENV1, Vero, 72 h
Record form. Attribute: log10(EC50). Fill in for each entry.
Friendly reminder: values = log10 of EC50, unit nM.

Use the examples below as a reference point.
                                   compound  readout_number
0  COc1cc(NC(C(=O)N2CCc3cc(OC)c(C(F)(F)F)cc32)c2ccc(Cl)cc2OC)cc(OCCCC(=O)O)c1 (single isomer, unassigned)           -0.21
1  COc1cc(NC(C(=O)N2CCc3ccc(OC(F)(F)F)cc32)c2ccc(Cl)cc2OC)cc(OCCCC(=O)O)c1 (single isomer, unassigned)           -0.82

Provide each entry's log10(EC50) from the list below.
1. COc1cc(NC(C(=O)N2CCc3cc(OC)c(C(F)(F)F)cc32)c2ccc(Cl)cc2)cc(OCCCC(=O)O)c1 (single isomer, unassigned)
2. COc1cc(NC(C(=O)N2CCc3ccc(C(F)(F)F)cc32)c2ccc(Cl)cc2OC)cc(OCCCC(=O)O)c1 (single isomer, unassigned)
3. COc1cc(NC(C(=O)N2CCc3ccc(OC(F)(F)F)cc32)c2ccc(F)cc2)cc(OCCCC(=O)O)c1 (single isomer, unassigned)
4. COc1cc(NC(C(=O)N2CCc3ccc(OC(F)(F)F)cc32)c2ccc(Cl)cc2)cc(OCCCC(=O)O)c1 (single isomer, unassigned)

1. -0.13
2. -0.33
3. -0.52
4. -1.32

====

# test.method.notes: in vitro
# stated.conditions: African green monkey
property.name: CC50 (µM)
Numbers only, in µM.

>>> print(df.to_string())
                                   compound  readout_number
0  COc1cc(NC(C(=O)N2CCc3ccc(OC(F)(F)F)cc32)c2ccc(Cl)cc2OC)cc(OCCCC(=O)O)c1 (single isomer, unassigned) [Compound 8A]              12

Provide each entry's CC50 from the list below.
1. COc1cc(NC(C(=O)N2CCc3ccc(OC(F)(F)F)cc32)c2ccc(Cl)cc2OC)cc(OCCCC(=O)O)c1 (racemic) [Compound 8]
2. COc1cc(NC(C(=O)N2CCc3ccc(C(F)(F)F)cc32)c2ccc(Cl)cc2OC)cc(OCCCC(=O)O)c1 (single isomer, unassigned) [Compound 6A]
3. COc1cc(NC(C(=O)N2CCc3ccc(OC(F)(F)F)cc32)c2ccc(Cl)cc2F)cc(OCCCC(=O)O)c1 (racemic) [Compound 10]
4. COc1cc(NC(C(=O)N2CCc3ccc(OC(F)(F)F)cc32)c2ccc(F)cc2)cc(OCCCC(=O)O)c1 (racemic) [Compound 2]
5. COc1cc(NC(C(=O)N2CCc3cc(OC)c(OC(F)(F)F)cc32)c2ccc(Cl)cc2)cc(OCCCC(=O)O)c1 (racemic) [Compound 12]

[12, 12, 10, 12, 12]

====

# Test system: Vero cells
# stated.conditions: African green monkey
Record form. Attribute: CC50. Fill in for each entry.
One number for each entry, in µM.

Use the examples below as a reference point.
>>> print(df.to_string())
                                   molecule  target_under_test  unit_annotation  readout_number
0  COc1cc(NC(C(=O)N2CCc3ccc(C(F)(F)F)cc32)c2ccc(Cl)cc2OC)cc(OCCCC(=O)O)c1 (single isomer, unassigned)         Vero cells               µM              13
1  COc1cc(NC(C(=O)N2CCc3ccc(OC(F)(F)F)cc32)c2ccc(Cl)cc2)cc(OCCCC(=O)O)c1 (single isomer, unassigned)         Vero cells               µM              13
2  COc1cc(NC(C(=O)N2CCc3ccc(OC(F)(F)F)cc32)c2ccc(F)cc2)cc(OCCCC(=O)O)c1 (single isomer, unassigned)         Vero cells               µM              20
3  COc1cc(NC(C(=O)N2CCc3ccc(C(F)(F)F)cc32)c2ccc(Cl)cc2F)cc(OCCCC(=O)O)c1 (single isomer, unassigned)         Vero cells               µM              13
4  COc1cc(NC(C(=O)N2CCc3cc(OC)c(C(F)(F)F)cc32)c2ccc(Cl)cc2OC)cc(OCCCC(=O)O)c1 (single isomer, unassigned)         Vero cells               µM              13

Consider the record given below.
// lookup CC50 for COc1cc(NC(C(=O)N2CCc3ccc(C(F)(F)F)cc32)c2ccc(Cl)cc2)cc(OCCCC(=O)O)c1 (single isomer, unassigned)
13
